Reference source: paper PMC10582335

Assay: Pharmacokinetics of apixaban in rats, alone and after multiple doses of almonertinib
Assay type: in vivo, Sprague-Dawley (SD) rats
Conditions: male, Sprague-Dawley, rat, plasma, po, 0.5 mg/kg, rats, oral apixaban 0.5 mg/kg alone (group 2), mean ± SD, n = 6; read-out: CLz/F (converted)
Procedure: Chromatographic separation was performed using an XSelect HSS T3 column (2.1 mm × 100 mm, 2.5 µm, Waters, Milford, MA, United States) at 40°C by gradient elution. The mobile phase consisted of water (A) and acetonitrile (0.1% formic acid, B). […] The flow rate was 0.35 mL min^−1, and the injection volume was 6 µL. The positive ion mode with multiple reaction detection was used. […]

Smi: COc1ccc(-n2nc(C(N)=O)c3c2C(=O)N(c2ccc(N4CCCCC4=O)cc2)CC3)cc1
Unit Tag: mL/min/kg
CL/F: 14.7

###

experiment: Pharmacokinetics of rivaroxaban in rats, alone and after multiple doses of almonertinib; format: in vivo, Sprague-Dawley (SD) rats; conditions: male, Sprague-Dawley, rat, plasma, po, 2 mg/kg, rats, oral rivaroxaban 2 mg/kg after almonertinib 15 mg/kg for nine days (group 5), mean ± SD, n = 6; read-out: MRT0-∞

Compound: O=C(NC[C@H]1CN(c2ccc(N3CCOCC3=O)cc2)C(=O)O1)c1ccc(Cl)s1 [rivaroxaban, Rivaroxaban]
MRT inf [h]: 4.12

###

experiment: Pharmacokinetics of rivaroxaban in rats, alone and after multiple doses of almonertinib; type: in vivo, Sprague-Dawley (SD) rats; details: male, Sprague-Dawley, rat, plasma; rats, oral rivaroxaban 2 mg/kg alone (group 1), mean ± SD, n = 6; read-out: t1/2z (converted)
Measurement Kind: half-life

Smi: O=C(NC[C@H]1CN(c2ccc(N3CCOCC3=O)cc2)C(=O)O1)c1ccc(Cl)s1
Recorded Measurement: 6.84 h

###

assay: Pharmacokinetics of almonertinib in rats, alone and after multiple doses of rivaroxaban or apixaban; assay type: in vivo, Sprague-Dawley (SD) rats; details: male, Sprague-Dawley, rat, plasma, po, 15 mg/kg, rats, oral almonertinib 15 mg/kg after rivaroxaban 2 mg/kg for five days (group 9), mean ± SD, n = 6

Smi: C=CC(=O)Nc1cc(Nc2nccc(-c3cn(C4CC4)c4ccccc34)n2)c(OC)cc1N(C)CCN(C)C
Unit Tag: ng·h/mL
AUC(0-t): 299

###

assay: Pharmacokinetics of almonertinib in rats, alone and after multiple doses of rivaroxaban or apixaban; format: in vivo, Sprague-Dawley (SD) rats; settings: male, Sprague-Dawley, rat, plasma, po, 15 mg/kg, rats, oral almonertinib 15 mg/kg after apixaban 0.5 mg/kg for five days (group 10), mean ± SD, n = 6; read-out: MRT0-∞
Measurement Kind: MRT inf (h)

Compound: C=CC(=O)Nc1cc(Nc2nccc(-c3cn(C4CC4)c4ccccc34)n2)c(OC)cc1N(C)CCN(C)C [almonertinib, Almonertinib]
Recorded Measurement: 9.31

###

experiment: Pharmacokinetics of apixaban in rats, alone and after multiple doses of almonertinib; assay type: in vivo, Sprague-Dawley (SD) rats; details: male, Sprague-Dawley, rat, plasma, po, 0.5 mg/kg, rats, oral apixaban 0.5 mg/kg alone (group 2), mean ± SD, n = 6

Molecule: COc1ccc(-n2nc(C(N)=O)c3c2C(=O)N(c2ccc(N4CCCCC4=O)cc2)CC3)cc1 [apixaban, Apixaban]
Unit Tag: min
Tmax: 40.8

###

experiment: Pharmacokinetics of apixaban in rats, alone and after multiple doses of almonertinib; type: in vivo, Sprague-Dawley (SD) rats; conditions: male, Sprague-Dawley, rat, plasma, po, 0.25 mg/kg, rats, oral apixaban 0.25 mg/kg after almonertinib 15 mg/kg for nine days (group 8), mean ± SD, n = 6; read-out: t1/2z (converted)

Compound: COc1ccc(-n2nc(C(N)=O)c3c2C(=O)N(c2ccc(N4CCCCC4=O)cc2)CC3)cc1 [apixaban, Apixaban]
half-life (h): 2.17

###

test: Pharmacokinetics of apixaban in rats, alone and after multiple doses of almonertinib; format: in vivo, Sprague-Dawley (SD) rats; conditions: male, Sprague-Dawley, rat, plasma, po, 0.5 mg/kg, rats, oral apixaban 0.5 mg/kg after almonertinib 15 mg/kg for nine days (group 7), mean ± SD, n = 6; read-out: MRT0-∞

Molecule: COc1ccc(-n2nc(C(N)=O)c3c2C(=O)N(c2ccc(N4CCCCC4=O)cc2)CC3)cc1 [apixaban, Apixaban]
MRT inf (h): 2.11

###

assay: Pharmacokinetics of rivaroxaban in rats, alone and after multiple doses of almonertinib; assay type: in vivo, Sprague-Dawley (SD) rats; details: male, Sprague-Dawley, rat, plasma, po, 2 mg/kg, rats, oral rivaroxaban 2 mg/kg alone (group 1), mean ± SD, n = 6; read-out: MRT0-t

Compound: O=C(NC[C@H]1CN(c2ccc(N3CCOCC3=O)cc2)C(=O)O1)c1ccc(Cl)s1 [rivaroxaban, Rivaroxaban]
MRT last / h: 4.72

###

assay: Pharmacokinetics of almonertinib in rats, alone and after multiple doses of rivaroxaban or apixaban; format: in vivo, Sprague-Dawley (SD) rats; details: male, Sprague-Dawley, rat, plasma, po, 15 mg/kg, rats, oral almonertinib 15 mg/kg after rivaroxaban 2 mg/kg for five days (group 9), mean ± SD, n = 6; read-out: MRT0-∞

Smi: C=CC(=O)Nc1cc(Nc2nccc(-c3cn(C4CC4)c4ccccc34)n2)c(OC)cc1N(C)CCN(C)C
MRT inf / h: 5.15

###

experiment: Pharmacokinetics of apixaban in rats, alone and after multiple doses of almonertinib; type: in vivo, Sprague-Dawley (SD) rats; details: male, Sprague-Dawley, rat, plasma, po, 0.25 mg/kg, rats, oral apixaban 0.25 mg/kg after almonertinib 15 mg/kg for nine days (group 8), mean ± SD, n = 6

Compound: COc1ccc(-n2nc(C(N)=O)c3c2C(=O)N(c2ccc(N4CCCCC4=O)cc2)CC3)cc1 [apixaban, Apixaban]
Unit Tag: ng·h/mL
AUC(0-inf): 1870

###

Experiment: Pharmacokinetics of rivaroxaban in rats, alone and after multiple doses of almonertinib
Assay type: in vivo, Sprague-Dawley (SD) rats
Conditions: male, Sprague-Dawley, rat, plasma, po, 2 mg/kg, rats, oral rivaroxaban 2 mg/kg after almonertinib 15 mg/kg for nine days (group 5), mean ± SD, n = 6
Procedure: Analytes were measured using UPLC-MS/MS, which was equipped with an LC-30A ultra-performance liquid chromatography (Shimadzu, Kyoto, Japan) and Sciex Triple Quad 5,500 tandem triple quadrupole mass spectrometer (AB Sciex, Framingham, MA, United States). Chromatographic separation was performed using an XSelect HSS T3 column (2.1 mm × 100 mm, 2.5 µm, Waters, Milford, MA, United States) at 40°C by gradient elution. The mobile phase consisted of water (A) and acetonitrile (0.1% formic acid, B). […]

Compound: O=C(NC[C@H]1CN(c2ccc(N3CCOCC3=O)cc2)C(=O)O1)c1ccc(Cl)s1 [rivaroxaban, Rivaroxaban]
AUC(0-inf) [ng·h/mL]: 3540

###

Assay: Pharmacokinetics of rivaroxaban in rats, alone and after multiple doses of almonertinib
Type: in vivo, Sprague-Dawley (SD) rats
Settings: male, Sprague-Dawley, rat, plasma; rats, oral rivaroxaban 1 mg/kg after almonertinib 15 mg/kg for nine days (group 6), mean ± SD, n = 6; read-out: t1/2z (converted)
Description: Analytes were measured using UPLC-MS/MS, which was equipped with an LC-30A ultra-performance liquid chromatography (Shimadzu, Kyoto, Japan) and Sciex Triple Quad 5,500 tandem triple quadrupole mass spectrometer (AB Sciex, Framingham, MA, United States). Chromatographic separation was performed using an XSelect HSS T3 column (2.1 mm × 100 mm, 2.5 µm, Waters, Milford, MA, United States) at 40°C by gradient elution. The mobile phase consisted of water (A) and acetonitrile (0.1% formic acid, B). […]
Measurement Kind: half-life (h)

Smi: O=C(NC[C@H]1CN(c2ccc(N3CCOCC3=O)cc2)C(=O)O1)c1ccc(Cl)s1
Measurement Kind: half-life
Recorded Measurement: 4.3

###

experiment: Pharmacokinetics of almonertinib in rats, alone and after multiple doses of rivaroxaban or apixaban; format: in vivo, Sprague-Dawley (SD) rats; settings: male, Sprague-Dawley, rat, plasma, po, 15 mg/kg, rats, oral almonertinib 15 mg/kg alone (group 4, control solvent of apixaban), mean ± SD, n = 6

Smi: C=CC(=O)Nc1cc(Nc2nccc(-c3cn(C4CC4)c4ccccc34)n2)c(OC)cc1N(C)CCN(C)C
Cmax / ng/mL: 39.8

###

Test: Pharmacokinetics of almonertinib in rats, alone and after multiple doses of rivaroxaban or apixaban
Type: in vivo, Sprague-Dawley (SD) rats
Conditions: male, Sprague-Dawley, rat, plasma, po, 15 mg/kg, rats, oral almonertinib 15 mg/kg after apixaban 0.5 mg/kg for five days (group 10), mean ± SD, n = 6; read-out: CLz/F (converted)
Procedure: Chromatographic separation was performed using an XSelect HSS T3 column (2.1 mm × 100 mm, 2.5 µm, Waters, Milford, MA, United States) at 40°C by gradient elution. The mobile phase consisted of water (A) and acetonitrile (0.1% formic acid, B). […] The flow rate was 0.35 mL min^−1, and the injection volume was 6 µL. The positive ion mode with multiple reaction detection was used. […]
Measurement Kind: CL/F (mL/min/kg)

Compound: C=CC(=O)Nc1cc(Nc2nccc(-c3cn(C4CC4)c4ccccc34)n2)c(OC)cc1N(C)CCN(C)C [almonertinib, Almonertinib]
Recorded Measurement: 877
